Data origin, for the record: ChEMBL document CHEMBL1126608

Attribute: Kb
# MEASUREMENT_TARGET: Muscarinic acetylcholine receptor M2 (Homo sapiens)
# TEST_METHOD_NOTES: Antagonist activity against muscarinic M2 receptor from guinea pig atria
# Assay type: functional
# COND: Cavia porcellus; target entry is the homologue from another species

| COMPOUND | Kb |
| --- | --- |
| COc1ccccc1N1CCN(CC(=O)C(O)(c2ccccc2)C2CCC2)CC1 (stereo not drawn) | > 10 µM |
| O=C(CN1CCN(C(c2ccccc2)c2ccccc2)CC1)C(O)(c1ccccc1)C1CCC1 (stereo not drawn) | > 100 µM |
| Cc1ccccc1CN1CCN(CC(=O)C(O)(c2ccccc2)C2CCC2)CC1 (stereo not drawn) | > 1 µM |
| O=C(CN1CCN(c2ccc([N+](=O)[O-])cc2)CC1)C(O)(c1ccccc1)C1CCC1 (stereo not drawn) | > 10 µM |
| O=C(CN1CCN(c2ccccc2)CC1)C(O)(c1ccccc1)C1CCC1 (stereo not drawn) | > 30 µM |
| CCOC(=O)N1CCN(CC(=O)C(O)(c2ccccc2)C2CCCCC2)CC1 (stereo not drawn) | > 30 µM |
| O=C(CN1CCN(Cc2ccco2)CC1)C(O)(c1ccccc1)C1CCC1 (stereo not drawn) | > 30 µM |
| CC(C)CC(O)(C(=O)CN1CCN(Cc2ccccc2)CC1)c1ccccc1 (stereo not drawn) | > 3 µM |
